- target: T1, nSR100 (Mus musculus, UniProt Q8BKA3)
- T1 construct: host or cells: mouse N2A cells
- T1 sequence (Q8BKA3 1-608): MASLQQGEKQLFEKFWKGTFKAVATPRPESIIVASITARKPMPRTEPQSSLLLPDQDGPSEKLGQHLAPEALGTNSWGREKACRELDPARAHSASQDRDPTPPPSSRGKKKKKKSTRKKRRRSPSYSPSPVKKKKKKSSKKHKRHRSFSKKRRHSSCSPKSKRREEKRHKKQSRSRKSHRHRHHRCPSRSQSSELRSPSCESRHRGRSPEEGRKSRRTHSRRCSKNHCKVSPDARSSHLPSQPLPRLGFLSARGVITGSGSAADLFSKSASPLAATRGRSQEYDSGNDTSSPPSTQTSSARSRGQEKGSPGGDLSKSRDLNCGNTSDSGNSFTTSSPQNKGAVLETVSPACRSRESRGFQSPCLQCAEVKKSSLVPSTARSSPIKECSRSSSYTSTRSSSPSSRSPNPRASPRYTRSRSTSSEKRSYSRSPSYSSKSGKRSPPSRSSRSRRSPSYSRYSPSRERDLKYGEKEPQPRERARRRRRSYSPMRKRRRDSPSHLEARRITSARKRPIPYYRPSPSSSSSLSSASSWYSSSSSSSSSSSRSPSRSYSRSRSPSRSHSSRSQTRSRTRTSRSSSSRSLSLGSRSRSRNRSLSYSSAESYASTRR
- experimentNotes: AP-MS nSR100 interaction partners from mouse N2A cells (Table 5)
- Format: binding
- testContext: bait Srrm4, sum of spectra over 2 replicates
SpecSum: recorded values
Enter a number only.

Luc7l (protein, UniProt Q9CYI4 1-371, looked up) Putative RNA-binding protein …: MSAQAQMRALLDQLMGTARDGDETRQRVKFTDDRVCKSHLLDCCPHDILAGTRMDLGECTKIHDLALRADYEIASKERDLFFELDAMDHLESFIAECDRRTELAKKRLAETQEEISAEVSAKAEKVHELNEEIGKLLAKAEQLGAEGNVDESQKILMEVEKVRAKKKEAEEEYRNSMPASSFQQQKLRVCEVCSAYLGLHDNDRRLADHFGGKLHLGFIQIREKLDQLRKTVAEKQEKRNQDRLRRREEREREERLGRRSGSRTRDRRRSRSRDRRRRRSRSTSRERRKFSRSRSRDRYRRHRSRSRSHSRGHRRASRDRSTKYKFSRERSLREESWEYGRNERGPTDWRLENSNGKTASRRSEEKEAGEI; 38
Rnps1 (protein, UniProt Q99M28 1-305, looked up) RNA-binding protein with …: MDLSGVKKKSLLGVKENNKKSSTRAPSPTKRKDRSDEKSKDRSKDKGATKESSEKDRGRDKTRKRRSASSGSSSTRSRSSSTSSSGSSTSTGSSSGSSSSSASSRSGSSSTSRSSSSSSSSGSPSPSRRRHDNRRRSRSKSKPPKRDEKERKRRSPSPKPTKVHIGRLTRNVTKDHIMEIFSTYGKIKMIDMPVERMHPHLSKGYAYVEFENPDEAEKALKHMDGGQIDGQEITATAVLAPWPRPPPRRFSPPRRMLPPPPMWRRSPPRMRRRSRSPRRRSPVRRRSRSPGRRRHRSRSSSNSSR; 51
Snrpb2 (protein, UniProt Q9CQI7 1-225, looked up) U2 small nuclear …: MDIRPNHTIYINNMNDKIKKEELKRSLYALFSQFGHVVDIVALKTMKMRGQAFVIFKELGSSTNALRQLQGFPFYGKPMRIQYAKTDSDIISKMRGTFADKEKKKEKKKAKTMEQAAAAANKKPGQGTPNAANTQGTAAPNPQVPDYPPNYILFLNNLPEETNEMMLSMLFNQFPGFKEVRLVPGRHDIAFVEFENDGQAGAARDALQGFKITPSHAMKITYAKK; 11

Reported SpecSum, molecule Snrpa (protein, UniProt Q62189 1-287, looked up) U1 small nuclear …: MATIATMPVPETRANHTIYINNLNEKIKKDELKKSLYAIFSQFGQILDILVSRIMKMRGQAFVIFKEVTSATNALRSMQGFPFYDKPMRIQYAKTDSDIIAKMKGTYVERDRKREKRKPKSQETPAAKKAVQGGAAAPVVGAVQPVPGMPPMPQAPRIMHHMPGQPPYMPPPGMIPPPGLAPGQIPPGAMPPQQLMPGQMPPAQPLSENPPNHILFLTNLPEETNELMLSMLFNQFPGFKEVRLVPGRHDIAFVEFDNEVQAGAARDALQGFKITQNNAMKISFAKK : ____
78
